assay: Single oral dose pharmacokinetic study in dogs, varying the testosterone dose (Example 1); assay type: in vivo, dogs (female beagles); conditions: female, beagle, dog, serum, dose 25 mg, single oral, time 1 h
parameter_measured: concentration at 1 h (ng/mL)
Express the result in ng/mL but write the number alone.

Query: // concentration at 1 h lookup, key: "C[C@]12CC[C@H]3[C@@H](CCC4=CC(=O)CC[C@@]43C)[C@@H]1CC[C@@H]2O"
Result: 3.9

----------
test: Single oral dose pharmacokinetic study in dogs, varying the testosterone dose (Example 1); format: in vivo, dogs (female beagles); settings: female, beagle, dog, serum, dose 50 mg, single oral, time 8 h
parameter_measured: concentration at 8 h (ng/mL)
Express the result in ng/mL but write the number alone.

Query: // concentration at 8 h lookup, key: C[C@]12CC[C@H]3[C@@H](CCC4=CC(=O)CC[C@@]43C)[C@@H]1CC[C@@H]2O [Testosterone, testosterone]
Result: 0.54

----------
test: Single oral dose pharmacokinetic study in dogs, varying the testosterone dose (Example 1); type: in vivo, dogs (female beagles); details: female, beagle, dog, serum, dose 250 mg, single oral, time 24 h
parameter_measured: concentration at 24 h (ng/mL)
Express the result in ng/mL but write the number alone.

Query: // concentration at 24 h lookup, key: "C[C@]12CC[C@H]3[C@@H](CCC4=CC(=O)CC[C@@]43C)[C@@H]1CC[C@@H]2O"
Result: 0.08

----------
test: Single oral dose pharmacokinetic study in dogs, varying the testosterone dose (Example 1); type: in vivo, dogs (female beagles); conditions: female, beagle, dog, serum, dose 25 mg, single oral, time 8 h
parameter_measured: concentration at 8 h (ng/mL)
Express the result in ng/mL but write the number alone.

Query: // concentration at 8 h lookup, key: C[C@]12CC[C@H]3[C@@H](CCC4=CC(=O)CC[C@@]43C)[C@@H]1CC[C@@H]2O [Testosterone, testosterone]
Result: 0.23

----------
assay: Single oral dose pharmacokinetic study in dogs, varying the testosterone dose (Example 1); assay type: in vivo, dogs (female beagles); conditions: female, beagle, dog, serum, dose 50 mg, single oral, time 1 h
parameter_measured: concentration at 1 h (ng/mL)
Express the result in ng/mL but write the number alone.

Query: // concentration at 1 h lookup, key: C[C@]12CC[C@H]3[C@@H](CCC4=CC(=O)CC[C@@]43C)[C@@H]1CC[C@@H]2O [Testosterone, testosterone]
Result: 2.86

----------
assay: Single oral dose pharmacokinetic study in dogs, varying the testosterone dose (Example 1); type: in vivo, dogs (female beagles); details: female, beagle, dog, serum, dose 50 mg, single oral, time 4 h
parameter_measured: concentration at 4 h (ng/mL)
Express the result in ng/mL but write the number alone.

Query: // concentration at 4 h lookup, key: "C[C@]12CC[C@H]3[C@@H](CCC4=CC(=O)CC[C@@]43C)[C@@H]1CC[C@@H]2O"
Result: 2.88

----------
Experiment: Single oral dose pharmacokinetic study in dogs, varying the testosterone dose (Example 1)
Assay type: in vivo, dogs (female beagles)
Settings: female, beagle, dog, serum, dose 50 mg, single oral, time 24 h
Experimental: A study using six dogs (female beagles) was made to obtain preliminary pharmacokinetic data following a single oral dose of the delivery system. The dogs were 13-24 months old, and weighed in the range of 10.4 to 13.2 kg. The dosing was done in four sequential one day intervals with a minimum two day rest period in between each interval. Blood was drawn immediately before the dose was administered. […]
parameter_measured: concentration at 24 h (ng/mL)
Express the result in ng/mL but write the number alone.

Query: // concentration at 24 h lookup, key: C[C@]12CC[C@H]3[C@@H](CCC4=CC(=O)CC[C@@]43C)[C@@H]1CC[C@@H]2O [Testosterone, testosterone]
Result: 0.07

Sourced from patent US20040096498A1
